Tested system: recombinant human CDK1/Cyclin B complex (Homo sapiens)
Construct: E. coli M15 for the Rb substrate
Sequence (P06493 whole entry): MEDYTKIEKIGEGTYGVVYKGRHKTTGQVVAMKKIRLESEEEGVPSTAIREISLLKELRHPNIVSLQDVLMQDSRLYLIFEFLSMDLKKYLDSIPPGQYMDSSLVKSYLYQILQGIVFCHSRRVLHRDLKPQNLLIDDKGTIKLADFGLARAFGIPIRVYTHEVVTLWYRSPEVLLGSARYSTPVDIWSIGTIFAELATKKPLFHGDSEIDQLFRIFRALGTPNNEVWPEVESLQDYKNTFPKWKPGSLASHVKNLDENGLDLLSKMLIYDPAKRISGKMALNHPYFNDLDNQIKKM
Sequence (P14635 whole entry partner): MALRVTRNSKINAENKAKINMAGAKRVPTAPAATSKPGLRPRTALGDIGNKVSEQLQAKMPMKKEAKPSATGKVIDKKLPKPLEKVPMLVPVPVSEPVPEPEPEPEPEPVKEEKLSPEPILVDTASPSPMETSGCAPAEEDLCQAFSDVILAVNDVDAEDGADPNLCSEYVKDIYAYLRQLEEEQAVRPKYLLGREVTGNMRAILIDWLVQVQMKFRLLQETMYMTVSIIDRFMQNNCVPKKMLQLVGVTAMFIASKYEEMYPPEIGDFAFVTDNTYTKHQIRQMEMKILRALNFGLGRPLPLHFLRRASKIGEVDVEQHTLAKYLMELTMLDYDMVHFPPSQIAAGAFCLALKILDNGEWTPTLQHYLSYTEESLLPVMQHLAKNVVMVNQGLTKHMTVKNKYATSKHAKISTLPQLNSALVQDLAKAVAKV
Assay details: CDK1/Cyclin B kinase assay (FlashPlate or HTRF)
Experimental conditions: Rb protein substrate, Ki=IC50/(1+[S]/Km)
// NB: equality with 100 nM counts as 0; only Ki strictly below is 1

Worked cases, answers included:
# Compound, Tested system, Category
records = [
    ("CCOc1cc(NC(C)=O)nc2ccc(/C=C3\\SC(NCC4COCCO4)=NC3=O)cc12 (centres unmarked) [Example 9]", "recombinant human CDK1/Cyclin B complex (Homo sapiens)", 0),
    ("CCOc1cc(N)nc2ccc(/C=C3\\SC(N)=NC3=O)cc12 [Example 3]", "recombinant human CDK1/Cyclin B complex (Homo sapiens)", 1),
    ("Nc1ccc2cc(/C=C3\\SC(N[C@@H]4C[C@H]4c4ccccc4)=NC3=O)ccc2n1 [Example 1]", "recombinant human CDK1/Cyclin B complex (Homo sapiens)", 1),
]

Then this compound:
Query :: Bench note: check whether CCOc1cc(NC(C)=O)nc2ccc(/C=C3\SC(NC4CC4)=NC3=O)cc12 [Example 5] shows Ki below 100 nM
Result :: 1
